Experiment: in vivo
Settings: terminal half-life
OBSERVED_PROPERTY: half-life

Problem: GET /values?readout=half-life&item= NCCCCN(Cc1nc2ccccc2[nH]1)[C@H]1CCCc2cccnc21 [X4P-001]
Solution: 12 to 24 h
